STUDY SYSTEM: T1, Peptide G (rat PAR-2), unbiotinylated (Rat (Rattus norvegicus))
T1 construct: also called Peptide G No Biotin
T1 peptide: GPNSKGRSLIGRLDTP
METHOD: SPR, antibody captured

| BINDER | UOM | T1/2 |
| --- | --- | --- |
| H4H581P (antibody, human IgG4, V domains shown, also called mAb H4H581P; H1H581P variable regions) VH: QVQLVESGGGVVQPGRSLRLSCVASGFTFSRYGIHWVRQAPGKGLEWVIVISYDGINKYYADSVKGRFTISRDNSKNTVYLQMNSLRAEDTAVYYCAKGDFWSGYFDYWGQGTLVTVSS VL: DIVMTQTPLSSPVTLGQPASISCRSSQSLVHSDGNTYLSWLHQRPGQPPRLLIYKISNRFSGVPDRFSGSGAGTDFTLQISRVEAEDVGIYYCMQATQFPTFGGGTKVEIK | s | 37.8 |
| H4H583P (antibody, human IgG4, V domains shown, also called H1H583P variable regions) VH: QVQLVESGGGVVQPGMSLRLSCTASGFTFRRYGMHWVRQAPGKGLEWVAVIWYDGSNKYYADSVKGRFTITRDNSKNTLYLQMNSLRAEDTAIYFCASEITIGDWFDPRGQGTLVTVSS VL: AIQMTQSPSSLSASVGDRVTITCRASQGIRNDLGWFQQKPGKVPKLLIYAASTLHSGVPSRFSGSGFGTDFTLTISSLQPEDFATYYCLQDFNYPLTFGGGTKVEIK | s | 4.2 |
| H4H579P (antibody, human IgG4, V domains shown, also called H1H579P variable regions) VH: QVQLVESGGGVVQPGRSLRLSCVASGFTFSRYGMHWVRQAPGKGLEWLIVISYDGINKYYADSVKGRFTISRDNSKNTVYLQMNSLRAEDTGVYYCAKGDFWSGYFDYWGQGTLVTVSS VL: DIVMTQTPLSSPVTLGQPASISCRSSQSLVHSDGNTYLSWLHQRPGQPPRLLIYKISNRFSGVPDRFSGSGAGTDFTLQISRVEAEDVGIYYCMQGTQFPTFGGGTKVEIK | s | 27 |
| H4H585P (antibody, human IgG4, V domains shown, also called H1H585P variable regions) VH: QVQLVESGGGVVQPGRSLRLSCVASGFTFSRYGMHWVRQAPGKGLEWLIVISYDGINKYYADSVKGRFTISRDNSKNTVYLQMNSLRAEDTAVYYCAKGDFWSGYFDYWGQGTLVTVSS VL: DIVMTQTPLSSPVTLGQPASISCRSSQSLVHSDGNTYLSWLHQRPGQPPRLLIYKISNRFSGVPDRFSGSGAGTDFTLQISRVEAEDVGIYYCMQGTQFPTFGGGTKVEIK | s | 19.8 |
| H4H584P (antibody, human IgG4, V domains shown, also called H1H584P variable regions) VH: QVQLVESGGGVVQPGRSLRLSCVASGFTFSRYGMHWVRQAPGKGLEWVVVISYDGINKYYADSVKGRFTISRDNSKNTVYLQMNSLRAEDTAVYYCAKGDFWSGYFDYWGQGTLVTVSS VL: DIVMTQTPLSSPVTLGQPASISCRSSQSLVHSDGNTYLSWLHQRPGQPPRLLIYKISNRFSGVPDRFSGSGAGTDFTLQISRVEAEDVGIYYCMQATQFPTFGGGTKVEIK | s | 7.8 |
